Reported pIC50 values follow for various compounds
System: HCT-8 (human colon adenocarcinoma) cells
Assay Text: HCT-8 in vitro (human colon adenocarcinoma)
Type: cell-based
Stated Conditions: 60-65 hrs at 37° C., read-out: HCT-8 in vitro ID50
# pIC50: negative log10 of molar concentration; output just the value

In [3]: df
Out[3]:
                        structure_as_smiles  assay_value
0  CN(C)CCCNc1ccc([N+](=O)[O-])c2sc3ccccc3c(=O)c12         6.34

Problem: Suppose we examine the compound CN(C)CCNc1ccc([N+](=O)[O-])c2sc3ccccc3c(=O)c12 ; what pIC50 value has been reported?
Result: 6.57

Problem: Can you look up the measured pIC50 of COc1ccc2sc3c([N+](=O)[O-])ccc(NCCN(C)C)c3c(=O)c2c1 for me?
Result: 6.00

Problem: pIC50 for CCN(CC)CCNc1ccc([N+](=O)[O-])c2sc3cc(OC)ccc3c(=O)c12 ?
Result: 5.96
